assay: Dissolving experiments: solubility of the peptide intermediate in solvent or solvent/additive mixture; details: 25° C.; 4/1 dichloromethane/phenol by weight
Where a name gives a salt, the structure may show the parent alone. Where a SMILES comes first, the peptide text is derived from it.
observable: Solubility in the 4/1 dichloromethane/phenol mixture

Identify measured Solubility in the 4/1 dichloromethane/phenol mixture corresponding to N[C@@H](Cc1c[nH]cn1)C(=O)N[C@@H](Cc1c[nH]c2ccccc12)C(=O)O [His,Trp.HCl, L-histidinyl-L-tryptophan hydrochloride]
s = 2 g/100 cm^3

Item CC(C)C[C@H](N)C(=O)N[C@@H](CCCNC(=N)N)C(=O)N1CCC[C@H]1C(=O)NCC(N)=O [Leu-Arg-Pro-Gly-NH2.HCl] (H-LRPG-NH2) : provide Solubility in the 4/1 dichloromethane/phenol mixture
s = 4 g/100 cm^3

Quick one: give measured Solubility in the 4/1 dichloromethane/phenol mixture for NC(N)=NCCC[C@H](N)C(=O)N1CCC[C@H]1C(=O)O [Afg-Pro.2HCl, L-arginyl-L-proline dihydrochloride] (H-Arg-Pro-OH)
s = 2 g/100 cm^3

Recall and state the measured Solubility in the 4/1 dichloromethane/phenol mixture for COC(=O)CNC(=O)CNC(=O)CNC(=O)CNC(=O)CNC(=O)OC(C)(C)C [Boc-Gly5-OCH3] .
s = 4 g/100 cm^3

The measured values listed here are drawn from patent US6342582B1.
